biological target: SARS-CoV-2 full length spike protein, D614G mutant, expressed on the surface of CHO cells (SARS-CoV-2, UniProt P0DTC2 14-1273)
Labelling field: enter 1 if recorded median fluorescence intensity, fold over isotype control is less than 10 fold over isotype. Enter 0 if it equals or exceeds that cut-off.

Query block: Determine if antibody 357 (antibody, V domains shown) VH: QVQLVQSGAEVKKPGSSVKVSCKASGGTFSSYAISWVRQAPGQGLEWMGRIIPILGIANYAQKFQGRVTITADKSTSTAYMELSSLRSEDTAVYYCARGPIAVAGIGPWFDPWGQGTLVTVSS VL: QSVLTQPPSVSAAPGQKVTISCSGSSSNIGNNYVSWYQQLPGTAPKLLIYDNNKRPSGIPDRFSGSKSGTSATLGITGLQTGDEADYYCGTWDSSLSAVVFGGGTKLTVL shows median fluorescence intensity, fold over isotype control strictly lower than 10 fold over isotype.
Result block: 1

Query block: Determine if antibody 355 (antibody, V domains shown) VH: QVHLVESGGGVVQPGRSLRLSCAASGFTFSSFPMHWVRQAPGKGLEWVAVISYDGGDEHYTDSVEGRFTISRDNSLNTLYLQMSSLRLEDTAVYYCARDRYDSSGYYYVSDYWGQGTLITVSS VL: SYELTQPPSVSVSPGQTARISCSGDALPKQYAYWYQQKPGQAPVLVIYKDSERPSGIPERFSGSSSGTTVTLTISGVQAEDEADYYCQSADSRGTDPWVFGGGTKLTVL shows median fluorescence intensity, fold over isotype control strictly lower than 10 fold over isotype.
Result block: 0

Query block: Determine if antibody 311 (antibody, V domains shown) VH: QVQLQESGPGLVKPSETLSLTCTVSGYSISSGYYWGWIRQPPGKGLEWIGSIYHSGSTYYNPSLKSRVTISVDTSKNQFSLKLSSVTAADTAVYYCAREETLGSSWYESYIDYWGQGTLVTVSS VL: SYVLTQPPSVSVAPGKTARITCGGNNIGSKSVHWYQQKPGQAPVLVIYYDSDRPSGIPERFSGSNSGNTATLTISRVEAGDEADYYCQVWDSSSDHPRVFGGGTKLTVL shows median fluorescence intensity, fold over isotype control strictly lower than 10 fold over isotype.
Result block: 0

Query block: Determine if antibody 356 (antibody, V domains shown) VH: QVQLVQSGAEVKKPGASVKVSCKASGYTFTSYGISWVRQAPGQGLEWMGWISAYHGNTNYAQKLQGRVTMTTDTSTSTAYMELRSLRSDDTAVYYCARVGLWWLGHADAFDIWGQGTMVTVSS VL: DIQMTQSPSSLSASVGDRVTITCRASQGIRNDLGWYQQKPGKAPKRLIYAASSLQSGVPSRFSGSGSGTEFTLTISSLQPEDFATYYCLQHNSYPLTFGGGTKVEIK shows median fluorescence intensity, fold over isotype control strictly lower than 10 fold over isotype.
Result block: 0

Query block: Determine if antibody 358 (antibody, V domains shown) VH: QVQLVESGGGVVQPGRSLRLSCAASGFNLNSYAMHWVRQASGKGLEWVSLMSYDGSIKYYADSVKGRFTVSGDNSRNTLFLQMNSLRPDDSALYYCVRGGVSGPNSFDLWGQGTTVTVSS VL: DVVMTQSPLSLPVTLGQPASISCRSSQSLVYSDGSTYVNWFQQRPGQSPRRLIYKVSNRDSGVPDRFSGSGSGTDFALKISRVEAEDVGVYYCMQGTHWPVTFGQGTKVEIK shows median fluorescence intensity, fold over isotype control strictly lower than 10 fold over isotype.
Result block: 1

Query block: Determine if antibody 338 (antibody, V domains shown) VH: QVQLQESGPGLVKPSETLSLTCAVSGYSISSDYYWGWIRQPPGKGLEWIGSIYHSGSTYYNPSLKSRVTISIDTSKNQFSLKLSSVTAADTAVYYCARDPGNYDILTGIFDYWGQGTLVTVSS VL: QSALTQPASVSGSPGQSITISCTGTSSDVGVYNYVSWYQQHPGKAPKLMIYDVTNRPSGVSNRFSGSKSGNTASLTISGLQAEDEADYYCSSYTSSSTLAVYVFGTGTKVTVL shows median fluorescence intensity, fold over isotype control strictly lower than 10 fold over isotype.
Result block: 1

Query block: Determine if antibody 330 (antibody, V domains shown) VH: QVQLVESGGGVVQPGRSLRLSCAASGFTFSSYAMHWVRQAPGKGLEWVAVISYDGSNKYYADSVKGRFTISRDNSKNTLYLQMNSLRAEDTAVYYCARDFQYYDFWSGYLTVSSPTSYYGMDVWGQGTTVTVSS VL: NFMLTQPHSVSESPGKTVTISCTGSSGSIASNYVQWYQQRPGSAPTTVIYEDNQRPSGVPDRFSGSIDSSSNSASLTISGLKTEDEADYYCQSYDSSNVVFGGGTKLTVL shows median fluorescence intensity, fold over isotype control strictly lower than 10 fold over isotype.
Result block: 0
